Data provenance: patent US20170008921A1

# protocol.details: Single dose oral pharmacokinetic study
# Type: in vivo
# assay.context: mouse; Mice oral PK @30 mg/kg; plasma; vehicle 10% Solutol+20% PEG; read-out: AUC0-t
measured.quantity: AUC(0-t) (µg·h/mL)
Please state the figure in µg·h/mL; there is no need to write the unit.

compound	AUC(0-t), µg·h/mL
CC(C)C1=C2[C@H]3CC[C@@H]4[C@@]5(C)CC[C@H](OC(=O)[C@H]6C[C@@H](C(=O)O)C6(C)C)C(C)(C)[C@@H]5CC[C@@]4(C)[C@]3(C)CC[C@@]2(NC(=O)C(C)(C)NCc2ccc(Cl)cc2)CC1=O [Example 68]	272

Report AUC(0-t) for CC(C)C1=C2[C@H]3CC[C@@H]4[C@@]5(C)CC[C@H](OC(=O)[C@H]6C[C@@H](C(=O)O)C6(C)C)C(C)(C)[C@@H]5CC[C@@]4(C)[C@]3(C)CC[C@@]2(NC(=O)C(C)(C)NC(=O)c2ccc(N3CCOCC3)cc2)CC1=O [Example 18] please.
236

Report AUC(0-t) for CC(C)C1=C2[C@H]3CC[C@@H]4[C@@]5(C)CC[C@H](OC(=O)[C@H]6C[C@@H](C(=O)O)C6(C)C)C(C)(C)[C@@H]5CC[C@@]4(C)[C@]3(C)CC[C@@]2(NC(=O)C(C)(C)NCc2ccccn2)CC1=O [Example 67] please.
86.6

Report AUC(0-t) for CC(C)C1=C2[C@H]3CC[C@@H]4[C@@]5(C)CC[C@H](OC(=O)[C@H]6C[C@@H](C(=O)O)C6(C)C)C(C)(C)[C@@H]5CC[C@@]4(C)[C@]3(C)CC[C@@]2(NC(=O)C(C)(C)NC(=O)c2cccnc2N2CCOCC2)CC1=O [Example 31] please.
255

Report AUC(0-t) for Cc1nc(C)c(C(=O)NC(C)(C)C(=O)N[C@@]23CC[C@]4(C)[C@H](CC[C@@H]5[C@@]6(C)CC[C@H](OC(=O)[C@H]7C[C@@H](C(=O)O)C7(C)C)C(C)(C)[C@@H]6CC[C@]54C)C2=C(C(C)C)C(=O)C3)s1 [Example 14] please.
377

Report AUC(0-t) for Cc1cccc(NC(=O)NC(C)(C)C(=O)N[C@@]23CC[C@]4(C)[C@H](CC[C@@H]5[C@@]6(C)CC[C@H](OC(=O)[C@H]7C[C@@H](C(=O)O)C7(C)C)C(C)(C)[C@@H]6CC[C@]54C)C2=C(C(C)C)C(=O)C3)n1 [Example 72] please.
192
